Assay system: Laminin 421/521
Experiment notes: phage display, NGS count
Outcome label depends on Count relative to 40: at/above gives T, below gives F.

>  <Binder>
KALGYSLVGGEW

>  <Cat>
T

$$$$
>  <Binder>
WAYTDYM

>  <Cat>
F

$$$$
>  <Binder>
AVRPLGLPDNHR

>  <Cat>
F

$$$$
>  <Binder>
WGWNGANMSPRG

>  <Cat>
F

$$$$
>  <Binder>
GDLWNVP

>  <Cat>
T

$$$$
>  <Binder>
ADMPQMTLKYGV

>  <Cat>
T

$$$$
>  <Binder>
TVARSTAQERSI

>  <Cat>
F

$$$$
